Values compiled from the antibiotic and cytotoxicity screens of Wong et al. (2023).

# System: HepG2
# protocol.description: cytotoxicity call (relative viability < 0.9)
# condition.notes: 10 µM
The whole screen tested about 39,000 compounds, of which about 3,300 (8.5%) were called active. The full list was thinned out, with actives kept by preference.
test.readout: cytotoxicity call

Cc1noc(C)c1S(=O)(=O)Nc1cccc2c1O[C@@H](CN(C)C(=O)Nc1ccccc1)[C@@H](C)CN([C@@H](C)CO)C2=O : inactive
COc1ccc(COC[C@]23NC(=O)N[C@H](c4ccccc4O2)[C@H]3COC(=O)NCCCCCC(=O)NO)cc1 : inactive

###

# System: HepG2
# protocol.description: cytotoxicity call (relative viability < 0.9)
# condition.notes: 10 µM
The whole screen tested about 39,000 compounds, of which about 3,300 (8.5%) were called active. For the sample, actives were picked, then their nearest neighbours and some compounds at random.
test.readout: cytotoxicity call

A selection of reference data follows.
C[C@@H]1CN([C@@H](C)CO)C(=O)c2cc(NS(=O)(=O)c3ccc(Cl)cc3)ccc2O[C@@H](C)CCCCO[C@H]1CN(C)C(=O)Cc1ccccc1 : inactive
O=C(Nc1ccc(-c2nc3ccc(NC(=O)c4ccc(NC(=O)c5cccc6ccccc56)cc4)cc3[nH]2)cc1)c1ccc(NC(=O)c2cccc3ccccc23)cc1 : inactive
Cc1cc(OCc2nnc(SC3CCCC3)n2-c2cccnc2)ccc1-c1ccc(S(C)(=O)=O)cc1 : active
CCS(=O)(=O)Nc1ccc2c(c1)C(=O)N(C)C[C@@H](OC)[C@H](C)CN(Cc1cccnc1)[C@H](C)CO2 : inactive
O=C(C[C@H]1CC[C@@H](NC(=O)CN2CCOCC2)[C@H](CO)O1)NC1CCC1 : inactive
Cc1noc(C)c1NC(=O)Nc1ccc2c(c1)C(=O)N([C@@H](C)CO)C[C@H](C)[C@@H](CN(C)C(=O)Nc1ccc(F)cc1)OCCCC[C@@H](C)O2 : inactive

Can you give me cytotoxicity call for all of these, one by one?
1. O=C(C1=C[C@@H](C2CC2)C[C@@H](OCc2ccc(CO)cc2)O1)N1CCN(Cc2ccc3c(c2)OCO3)CC1
2. C[C@@H]1CN([C@@H](C)CO)C(=O)c2cc(NS(=O)(=O)c3ccc(F)cc3)ccc2O[C@@H](C)CCCCO[C@H]1CN(C)C(=O)C1CCCCC1
3. C[C@@H]1CN([C@H](C)CO)C(=O)c2cc(NC(=O)CCC(F)(F)F)ccc2O[C@H]1CN(C)S(=O)(=O)c1cn(C)cn1
4. c1ccc(-c2nc3ccccc3o2)cc1
5. COc1ccc(S(=O)(=O)N(C)C[C@H]2Oc3ccc(NC(=O)CCC(F)(F)F)cc3CC(=O)N([C@@H](C)CO)C[C@H]2C)cc1
6. C[C@@H]1CN([C@@H](C)CO)C(=O)c2cc(NC(=O)Cc3ccccc3)ccc2O[C@H]1CN(C)S(=O)(=O)c1ccccc1

[out]
1. inactive
2. inactive
3. inactive
4. inactive
5. inactive
6. inactive

###

# System: HepG2
# protocol.description: cytotoxicity call (relative viability < 0.9)
# condition.notes: 10 µM
The whole screen tested about 39,000 compounds, of which about 3,300 (8.5%) were called active. The sample holds actives, similar compounds and a random draw of the others, so the mix is not that of the screen.
test.readout: cytotoxicity call

C[C@@H]1CN([C@H](C)CO)C(=O)c2cc(NC(=O)Cc3ccccc3)ccc2O[C@@H](C)CCCCO[C@@H]1CN(C)S(=O)(=O)c1ccc(Cl)cc1 : inactive
O=C(O)c1csc2c1CCCCC2 : inactive

###

# Tested on: HepG2
# protocol.description: cytotoxicity call (relative viability < 0.9)
# condition.notes: 10 µM
Out of some 39,000 compounds screened, about 3,300 (8.5%) were called active. The full list was thinned out, with actives kept by preference.
Your response should consist of one outcome taken from Y (active), N (inactive)

The examples below pair each entry with its known result.
CNc1cc(=O)n(C)c(=O)n1C : N
COc1ccccc1S(=O)(=O)N(C)C[C@@H]1OCc2cn(nn2)CCCC(=O)N([C@H](C)CO)C[C@H]1C : N
COc1ccc(S(=O)(=O)Nc2cccc3c2O[C@H](CN(C)Cc2ccc(Oc4ccccc4)cc2)[C@@H](C)CN([C@@H](C)CO)C3=O)cc1 : N
COc1ccc(S(=O)(=O)N(C)C[C@@H]2Oc3ccc(NC(=O)Nc4cccc5ccccc45)cc3C(=O)N([C@@H](C)CO)C[C@H]2C)cc1 : N
C[C@H](CO)N1C[C@H](C)[C@H](CN(C)Cc2ccc3c(c2)OCO3)OCCCC[C@H](C)Oc2ccc(NC(=O)Nc3ccc4c(c3)OCO4)cc2C1=O : Y

[in] State the result this test recorded for CC(C)C[C@@H](N)C(=O)N[C@H]1C(=O)N[C@@H](CC(N)=O)C(=O)N[C@H]2C(=O)N[C@H]3C(=O)N[C@H](C(=O)N[C@H](C(=O)O)c4cc(O)cc(O)c4-c4cc3ccc4O)[C@H](O)c3ccc(c(Cl)c3)Oc3cc2cc(c3O[C@@H]2O[C@H](CO)[C@@H](O)[C@H](O)[C@H]2O[C@H]2C[C@](C)(N)[C@H](O)[C@H](C)O2)Oc2ccc(cc2Cl)[C@H]1O .
[out] N

[in] Same thing, different compound: COc1ccccc1CNC(=O)C[C@@H]1CC[C@H]2[C@@H](COC[C@H](O)CN2C(=O)Nc2ccc(Cl)cc2)O1
[out] N

[in] Now this one: O=C(O)c1cn2cccc(O)c2n1
[out] N

[in] Now consider C[C@H]1CCCCO[C@H](CN(C)S(=O)(=O)c2ccc(Cl)cc2)[C@@H](C)CN([C@@H](C)CO)C(=O)c2cc(NC(=O)Nc3ccc(C(F)(F)F)cc3)ccc2O1 .
[out] N

###

# Test system: HepG2
# protocol.description: cytotoxicity call (relative viability < 0.9)
# condition.notes: 10 µM
Out of some 39,000 compounds screened, about 3,300 (8.5%) were called active. What follows is part of a selection rich in actives, with near analogues and random picks from the rest.
Please reply with one of these outcomes: class 1 = active, class 0 = inactive

Field: example entries. Status: answers known.
Cc1ccc(S(=O)(=O)Nc2ccc3c(c2)C(=O)N([C@H](C)CO)C[C@@H](C)[C@@H](CN(C)Cc2ccccc2)OCCCC[C@@H](C)O3)cc1 : class 0
Cc1ccc(NC(=O)c2ccc(CN3CC[C@H](N(C)C)C3)c(C(F)(F)F)c2)cc1Nc1nccc(-c2cncnc2)n1 : class 1
Cc1ccc(S(=O)(=O)Nc2ccc3c(c2)C(=O)N([C@@H](C)CO)C[C@@H](C)[C@@H](CN(C)Cc2ccccc2)OCCCC[C@H](C)O3)cc1 : class 0

Turning to the following compound.
[in] Fill in: this test's call for C[C@@H]1CN([C@@H](C)CO)C(=O)c2cc(NS(=O)(=O)c3ccccc3)ccc2O[C@@H](C)CCCCO[C@@H]1CN(C)Cc1ccccc1 is ___
[out] class 0

###

# System: HepG2
# protocol.description: cytotoxicity call (relative viability < 0.9)
# condition.notes: 10 µM
Screen size: about 39,000 compounds; about 3,300 (8.5%) were called active. The entries come from a sample that favours actives as a whole.
Result category, one only: True for active, False for inactive

COc1ccc(NC(=O)Nc2ccc3c(c2)C(=O)N([C@H](C)CO)C[C@@H](C)[C@@H](CN(C)Cc2ccc(Cl)c(Cl)c2)O3)cc1 : False
NNC(=O)c1ccc2c(=O)[nH][nH]c(=O)c2c1 : False

[in] Each compound tested received a call. Report the one for CS(=O)(=O)N1C[C@@H](O)COC[C@@H]2O[C@H](CC(=O)NCc3ccccc3)CC[C@H]21 .
[out] False

[in] Same for C[C@H]1CCCCO[C@H](CN(C)C(=O)Nc2ccc3c(c2)OCO3)[C@@H](C)CN([C@@H](C)CO)C(=O)c2cc(NS(=O)(=O)c3cccs3)ccc2O1
[out] False

[in] Proceed to CC(C)(C)OC(=O)Nc1cccc([C@@H]2CC(=O)N(C(=O)OCc3ccccc3)[C@@H]2C(=O)Nc2cccc3cccnc23)c1
[out] False

###

# System: HepG2
# protocol.description: cytotoxicity call (relative viability < 0.9)
# condition.notes: 10 µM
The whole screen tested about 39,000 compounds, of which about 3,300 (8.5%) were called active. Only a selection was taken, and actives are over-represented in it overall.
Thanks in advance; please answer with one of these: 1.0 for active, 0.0 for inactive

Take a look at these entries with their results.
CNC[C@H]1Oc2ccc(NC(=O)Cn3cnnn3)cc2CC(=O)N([C@@H](C)CO)C[C@H]1C : 0.0
Cn1cc(S(=O)(=O)Nc2ccc3c(c2)OCCO3)c(=O)n(C)c1=O : 0.0
C[C@@H]1CN([C@@H](C)CO)C(=O)c2cc(-c3ccc(C(=O)N(C)C)cc3)cnc2O[C@H]1CN(C)C(=O)CN(C)C : 0.0

[in] Answer briefly: the call reported for COc1ccccc1NC(=O)Nc1ccc2c(c1)C(=O)N(C)C[C@@H](OC)[C@H](C)CN(Cc1ccccc1Cl)[C@H](C)CO2 in this assay.
[out] 0.0

[in] Similarly, C[C@H](CO)N1C[C@H](C)[C@H](CN(C)Cc2ccc(-c3ccccc3)cc2)Oc2c(NC(=O)Nc3ccc(F)cc3)cccc2C1=O ?
[out] 0.0

[in] Again, but for C[C@@H]1CN([C@@H](C)CO)C(=O)c2cccc(NC(=O)Nc3ccc(F)cc3)c2O[C@@H]1CN(C)Cc1ccc(-c2ccccc2)cc1
[out] 1.0
